- SYSTEM_NAME: T1, recombinant human CSF-1R (form not stated) (human, UniProt P07333 20-512, limits assumed)
- T1 construct: for the ELISA no species is stated; also called recombinant CSF-1R; recombinant CSF-1R protein
- EXPERIMENTAL_DETAILS: BIAcore, humanisation stage, crude cell supernatant
QUANTITY: kon (M⁻¹ s⁻¹)

BINDER	QUANTITY	VALUE_UNITS	MEAS_VALUE
969gH2gL5 (antibody, human IgG4 S228P, kappa, name in Kabat numbering, V domains shown, Humanised IgG4 (S241P)/kappa; positions are Kabat) VH: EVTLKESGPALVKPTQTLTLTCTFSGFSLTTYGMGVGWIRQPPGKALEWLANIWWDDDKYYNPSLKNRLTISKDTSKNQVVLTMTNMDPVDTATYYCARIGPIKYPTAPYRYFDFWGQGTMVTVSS VL: DIQMTQSPSSLSASVGDRVTITCLASEDIYDNLAWYQQKPGKAPKLLIYYASSLQDGVPSRFSGSGSGTDFTLTISSLQPEDFATYFCLQDSEYPWTFGGGTKVEIKR	kon	M⁻¹ s⁻¹	768000
969gH1gL8 (antibody, human IgG4 S228P, kappa, name in Kabat numbering, V domains shown, Humanised IgG4 (S241P)/kappa; positions are Kabat) VH: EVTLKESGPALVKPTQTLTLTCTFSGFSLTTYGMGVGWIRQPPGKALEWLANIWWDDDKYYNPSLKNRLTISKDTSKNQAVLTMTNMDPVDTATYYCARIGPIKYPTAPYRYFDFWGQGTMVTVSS VL: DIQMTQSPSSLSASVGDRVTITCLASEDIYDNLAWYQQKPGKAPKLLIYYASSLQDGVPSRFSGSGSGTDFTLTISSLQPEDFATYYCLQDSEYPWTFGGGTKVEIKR	kon	M⁻¹ s⁻¹	1.17e+06

Entry source: patent US20180162947A1
